# target desc: SPF45 UHM (Homo sapiens)
# Construct: three different UHM domains of SPF45, PUF60 and U2AF65; made in house
# Sequence (Q96I25 306-385 limits assumed): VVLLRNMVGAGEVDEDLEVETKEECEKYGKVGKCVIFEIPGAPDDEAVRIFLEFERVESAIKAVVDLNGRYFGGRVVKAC
# test details: AlphaScreen competition assay, SPF45
# Assay type: binding
# test settings: Table 1; errors = standard errors of fitting
readout label: IC50 (µM)
Please state the figure in µM; there is no need to write the unit.

Some solved entries appear below for comparison.
query: Given the compound OCCN1CCN(CCCN2c3cc(Cl)ccc3Sc3cc(O)c(O)cc32)CC1 [7,8-dihydroxyperphenazine] , what is its reported IC50?
result: 10.4

query: What would you report for "CCCOc1cc2c(cc1OC)N(CCCN1CCN(CCO)CC1)c1cc(Cl)ccc1S2" ?
result: 7.6

New cases:
query: Given the compound "OCCN1CCN(CCCN2c3ccccc3Sc3ccccc32)CC1" , what is its reported IC50?
result: 211

query: What would you report for "C=CCCOc1cc2c(cc1OC)N(CCCN1CCN(CCO)CC1)c1cc(Cl)ccc1S2" ?
result: 6.9

query: What would you report for "COc1cc2c(cc1OC)N(CCCN1CCN(CCO)CC1)c1cc(Cl)ccc1S2" ?
result: 10.9

Recorded values, source paper PMC7648758.
